# Measurement Description: Cytotoxicity in African green monkey BGM cells assessed as reduction in cell viability incubated for 48 hrs by MTT assay
# Type: cell-based
# Cond: chlorocebus aethiops

{"columns": ["Compound", "Qualifier Sign", "CC50 at 48 h, µM"],
 "data": [
  ["CC1(C)CC[C@]2(C(=O)O)CC[C@]3(C)C(=CC[C@@H]4[C@@]5(C)CC[C@H](O)[C@@](C)(CO)[C@@H]5CC[C@]43C)[C@@H]2C1", "=", 57],
  ["C#CCOC[C@@]1(C)[C@@H]2CC[C@]3(C)[C@H](CC=C4[C@@H]5CC(C)(C)CC[C@]5(C(=O)OCC#C)CC[C@]43C)[C@@]2(C)CC[C@@H]1O", "=", 99],
  ["Cc1ccc(C(=O)Cn2cc(COC[C@@]3(C)[C@@H]4CC[C@]5(C)[C@H](CC=C6[C@@H]7CC(C)(C)CC[C@]7(C(=O)OCc7cn(CC(=O)c8ccc(C)cc8)nn7)CC[C@]65C)[C@@]4(C)CC[C@@H]3O)nn2)cc1", ">", 1000],
  ["CC1(C)CC[C@]2(C(=O)OCc3cn(Cc4ccc(F)cc4F)nn3)CC[C@]3(C)C(=CC[C@@H]4[C@@]5(C)CC[C@H](O)[C@@](C)(COCc6cn(Cc7ccc(F)cc7F)nn6)[C@@H]5CC[C@]43C)[C@@H]2C1", "=", 99.7],
  ["CC1(C)CC[C@]2(C(=O)OCc3cn(Cc4ccc([N+](=O)[O-])cc4)nn3)CC[C@]3(C)C(=CC[C@@H]4[C@@]5(C)CC[C@H](O)[C@@](C)(COCc6cn(Cc7ccc([N+](=O)[O-])cc7)nn6)[C@@H]5CC[C@]43C)[C@@H]2C1", ">", 1000],
  ["CC1(C)CC[C@]2(C(=O)OCc3cn(Cc4ccccc4F)nn3)CC[C@]3(C)C(=CC[C@@H]4[C@@]5(C)CC[C@H](O)[C@@](C)(COCc6cn(Cc7ccccc7F)nn6)[C@@H]5CC[C@]43C)[C@@H]2C1", ">", 1000]
]}

----------
# Measurement Description: Selectivity index, ratio of CC50 for dog DH82 cells to IC50 for antileishmanial activity against Leishmania infantum MHOM/BR/70/BH46 intracellular amastigotes infected in canine DH82 cells
# Type: toxicity, cell-based
# Cond: read-out: Ratio CC50/IC50
Measured Endpoint: selectivity ratio

{"columns": ["Compound", "Value Measured"],
 "data": [
  ["CC1(C)CC[C@]2(C(=O)OCc3cn(Cc4ccc([N+](=O)[O-])cc4)nn3)CC[C@]3(C)C(=CC[C@@H]4[C@@]5(C)CC[C@H](O)[C@@](C)(COCc6cn(Cc7ccc([N+](=O)[O-])cc7)nn6)[C@@H]5CC[C@]43C)[C@@H]2C1", "> 38"],
  ["Cc1ccc(C(=O)Cn2cc(COC[C@@]3(C)[C@@H]4CC[C@]5(C)[C@H](CC=C6[C@@H]7CC(C)(C)CC[C@]7(C(=O)OCc7cn(CC(=O)c8ccc(C)cc8)nn7)CC[C@]65C)[C@@]4(C)CC[C@@H]3O)nn2)cc1", "> 135"],
  ["CC1(C)CC[C@]2(C(=O)OCc3cn(Cc4ccc(F)cc4F)nn3)CC[C@]3(C)C(=CC[C@@H]4[C@@]5(C)CC[C@H](O)[C@@](C)(COCc6cn(Cc7ccc(F)cc7F)nn6)[C@@H]5CC[C@]43C)[C@@H]2C1", 0.9],
  ["C#CCOC[C@@]1(C)[C@@H]2CC[C@]3(C)[C@H](CC=C4[C@@H]5CC(C)(C)CC[C@]5(C(=O)OCC#C)CC[C@]43C)[C@@]2(C)CC[C@@H]1O", 9],
  ["CC1(C)CC[C@]2(C(=O)O)CC[C@]3(C)C(=CC[C@@H]4[C@@]5(C)CC[C@H](O)[C@@](C)(CO)[C@@H]5CC[C@]43C)[C@@H]2C1", "> 10"],
  ["CC1(C)CC[C@]2(C(=O)OCc3cn(Cc4ccccc4F)nn3)CC[C@]3(C)C(=CC[C@@H]4[C@@]5(C)CC[C@H](O)[C@@](C)(COCc6cn(Cc7ccccc7F)nn6)[C@@H]5CC[C@]43C)[C@@H]2C1", "> 178"]
]}

Origin of values: ChEMBL document CHEMBL4130483
